Hi there, I'd appreciate the recorded glycan array binding signal (z-score) for every entry that follows.
experimental-target: Gal(b1-4)GlcNAc(b1-3)Gal(b1-4)GlcNAc(b1-3)Gal(b1-4)GlcNAc(b1-2)Man(a1-3)[Gal(b1-4)GlcNAc(b1-3)Gal(b1-4)GlcNAc(b1-3)Gal(b1-4)GlcNAc(b1-2)Man(a1-6)]Man(b1-4)GlcNAc(b1-4)GlcNAc
protocol: glycan array binding signal (z-score within array); higher = stronger binding
condition-info: glycan notation: IUPAC condensed, linker removed
The sample as a whole holds a higher share of the strongest signals than the screen did.
Answers are plain numbers.

Please supply glycan array binding signal (z-score) for each of the following items, keeping them in order.
1. Pbx2CASH domain (Cryptococcus neoformans) (protein) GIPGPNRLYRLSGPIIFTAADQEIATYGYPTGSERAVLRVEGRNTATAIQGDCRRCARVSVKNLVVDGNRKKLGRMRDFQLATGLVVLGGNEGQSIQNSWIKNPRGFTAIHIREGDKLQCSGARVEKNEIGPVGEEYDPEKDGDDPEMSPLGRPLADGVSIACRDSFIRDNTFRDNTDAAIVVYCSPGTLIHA
2. LngA (Escherichia coli) (protein) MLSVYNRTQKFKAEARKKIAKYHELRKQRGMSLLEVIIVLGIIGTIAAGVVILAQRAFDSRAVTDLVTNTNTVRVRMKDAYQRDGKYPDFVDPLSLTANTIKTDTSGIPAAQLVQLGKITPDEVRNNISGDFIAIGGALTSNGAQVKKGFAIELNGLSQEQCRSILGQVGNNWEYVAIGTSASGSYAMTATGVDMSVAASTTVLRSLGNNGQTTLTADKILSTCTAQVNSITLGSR
3. Epa11 (Candida glabrata) (protein) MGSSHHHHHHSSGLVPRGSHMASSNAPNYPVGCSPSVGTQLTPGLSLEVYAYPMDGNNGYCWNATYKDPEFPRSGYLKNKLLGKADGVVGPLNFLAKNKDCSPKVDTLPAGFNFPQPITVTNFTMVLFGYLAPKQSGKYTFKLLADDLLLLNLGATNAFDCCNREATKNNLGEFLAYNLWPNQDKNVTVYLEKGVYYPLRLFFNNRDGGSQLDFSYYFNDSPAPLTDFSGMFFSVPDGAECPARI
4. FliC (Clostridium difficile) (protein) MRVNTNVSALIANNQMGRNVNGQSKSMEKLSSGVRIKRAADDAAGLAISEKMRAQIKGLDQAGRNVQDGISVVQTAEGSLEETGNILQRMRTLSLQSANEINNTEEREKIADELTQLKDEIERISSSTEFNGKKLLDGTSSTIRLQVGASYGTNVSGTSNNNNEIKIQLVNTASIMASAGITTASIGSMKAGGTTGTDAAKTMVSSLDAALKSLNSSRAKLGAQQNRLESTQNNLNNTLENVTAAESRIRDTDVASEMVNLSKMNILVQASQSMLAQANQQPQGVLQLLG

1. 6.89
2. 3.43
3. 2.67
4. 2.15
